Every entry's value here was drawn from paper PMC8345035.

- procedure details: In vivo biodistribution of [^203Pb]VMT01 in B16-F10 melanoma xenograft model
- Parameters: species or system athymic nude mice
- protocol conditions: both sexes, athymic nude, mouse, blood, intravenous, 74 KBq, total radioactivity, 0.5 h post-injection, tail vein, read-out: Biodistribution, Blood, Average
- Procedure: Radiolabeling of VMT01 was carried out according to published methods. Briefly, ^203Pb^2+ was purified on 50 mg Pb-resin (Eichrom Technologies, Lisle, IL, USA) and eluted into reaction vessel using 0.5 M sodium acetate (NaOAc) pH = 6 buffer. […] Biodistribution of [^203Pb]VMT01 was determined in a B16-F10 murine melanoma xenograft model in athymic nude mice. […] Radioactivity in tumor and organs was measured on a Cobra II automated gamma counter. […]
Where a SMILES comes first, the peptide text is derived from it. Bridges are numbered along the chain shown (N, C = ends). Triazole bridges read from a SMILES are 1,4-linked. Side-chain parts run from the residue outwards. [ ]: non-standard residue; d: D form. The star is where a group is joined. X1 = NC(=O)CN1CCN(CC(=O)O)CCN(CC(=O)*)CCN(CC(=O)O)CC1; Lys(N3) = [N-]=[N+]=NCCCC[C@H](N)C(=O)O; Nle = CCCC[C@H](N)C(=O)O; Pra = C#CC[C@H](N)C(=O)O; AEEA = NCCOCCOCC(=O)O
measurement kind: tissue uptake at 0.5 h
Answer with the number, then the unit.

Which value of tissue uptake at 0.5 h has been reported for CCCC[C@H](NC(C)=O)C(=O)N[C@H]1Cc2cn(nn2)CCCC[C@@H](C(=O)N[C@@H](CCCCNC(=O)COCCOCCNC(=O)CN2CCN(CC(=O)O)CCN(CC(N)=O)CCN(CC(=O)O)CC2)C(N)=O)NC(=O)[C@H](Cc2c[nH]c3ccccc23)NC(=O)[C@H](CCCNC(=N)N)NC(=O)[C@@H](Cc2ccccc2)NC(=O)[C@H](Cc2c[nH]cn2)NC1=O [[^203Pb]VMT01, metal not drawn] (Ac-[Nle][Pra]H[dF]RW[Lys(N3)]K([AEEA-X1])-NH2; triazole 2-7) in the records?
1.1 %ID/g

----------
- procedure details: In vivo biodistribution of [^203Pb]VMT01 in B16-F10 melanoma xenograft model
- Design: species or system athymic nude mice
- protocol conditions: both sexes, athymic nude, mouse, spleen, intravenous, 74 KBq, total radioactivity, 3 h post-injection, tail vein, read-out: Biodistribution, Spleen, Average
Where a SMILES comes first, the peptide text is derived from it. Bridges are numbered along the chain shown (N, C = ends). Triazole bridges read from a SMILES are 1,4-linked. Side-chain parts run from the residue outwards. [ ]: non-standard residue; d: D form. The star is where a group is joined. X1 = NC(=O)CN1CCN(CC(=O)O)CCN(CC(=O)*)CCN(CC(=O)O)CC1; Lys(N3) = [N-]=[N+]=NCCCC[C@H](N)C(=O)O; Nle = CCCC[C@H](N)C(=O)O; Pra = C#CC[C@H](N)C(=O)O; AEEA = NCCOCCOCC(=O)O
measurement kind: tissue uptake at 3 h (%ID/g)
Reply with just the number (in %ID/g).

Requested read-out: tissue uptake at 3 h. Entry: CCCC[C@H](NC(C)=O)C(=O)N[C@H]1Cc2cn(nn2)CCCC[C@@H](C(=O)N[C@@H](CCCCNC(=O)COCCOCCNC(=O)CN2CCN(CC(=O)O)CCN(CC(N)=O)CCN(CC(=O)O)CC2)C(N)=O)NC(=O)[C@H](Cc2c[nH]c3ccccc23)NC(=O)[C@H](CCCNC(=N)N)NC(=O)[C@@H](Cc2ccccc2)NC(=O)[C@H](Cc2c[nH]cn2)NC1=O [[^203Pb]VMT01, metal not drawn] (Ac-[Nle][Pra]H[dF]RW[Lys(N3)]K([AEEA-X1])-NH2; triazole 2-7)
0.12
